The measurements presented in this section are drawn from patent US5229381A.

I'd appreciate it if you could supply log10 of kinact/KI values for the items below.
Molecular target: human polymorphonuclear leukocyte elastase (Homo sapiens, UniProt P08246)
Construct: Crude extract of human polymorphonuclear leukocytes (PMN) containing elastase activity; endogenous in cells; host or cells: human polymorphonuclear leukocytes (crude extract)
Sequence (P08246 30-247 limits assumed): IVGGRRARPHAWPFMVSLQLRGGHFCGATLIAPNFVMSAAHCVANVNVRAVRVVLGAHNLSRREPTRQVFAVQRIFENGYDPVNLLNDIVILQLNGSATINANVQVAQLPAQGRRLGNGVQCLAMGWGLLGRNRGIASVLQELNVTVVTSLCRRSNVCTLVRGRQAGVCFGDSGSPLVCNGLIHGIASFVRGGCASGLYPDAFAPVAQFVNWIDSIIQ
Assay: Inhibition of human polymorphonuclear leukocyte (granulocyte) elastase via hydrolysis of Boc-AAPAN or Boc-AAPVN
Assay type: biochemical
Conditions: pH 7.5, Table VI, (per mole per second); read-out: kobs/I, second order rate constant of inactivation of the enzyme
Field: value | Transform: log10 | Quantity: kinact/KI | Unit: M⁻¹ s⁻¹

In the examples that follow, each entry is paired with its recorded log10 of kinact/KI.
{"compound.structure.string": "CCC[C@@H](NC(=O)N1C(=O)C(CC)(CC)[C@@H]1Oc1ccc(CC(=O)O)c(F)c1)c1ccc(C)cc1", "tested.target": "human polymorphonuclear leukocyte elastase (Homo sapiens, UniProt P08246)", "log10 of kinact/KI": 5.80}
{"compound.structure.string": "CCC[C@@H](NC(=O)N1C(=O)C(CC)(CC)[C@@H]1Oc1ccc(CC(=O)O)cc1)c1ccc(C)cc1", "tested.target": "human polymorphonuclear leukocyte elastase (Homo sapiens, UniProt P08246)", "log10 of kinact/KI": 5.75}
{"compound.structure.string": "CCC[C@@H](NC(=O)N1C(=O)C(CC)(CC)[C@@H]1Oc1ccc(C(=O)O)c(F)c1)c1ccc(C)cc1", "tested.target": "human polymorphonuclear leukocyte elastase (Homo sapiens, UniProt P08246)", "log10 of kinact/KI": 5.67}
{"compound.structure.string": "CCC[C@@H](NC(=O)N1C(=O)C(CC)(CC)[C@@H]1Oc1ccc(CC(=O)O)cc1)c1ccc2c(c1)OCO2", "tested.target": "human polymorphonuclear leukocyte elastase (Homo sapiens, UniProt P08246)", "log10 of kinact/KI": 5.94}

Next compound, please.
Request: Which log10 of kinact/KI is reported for this compound? "CCC1(CC)C(=O)N(C(=O)N[C@H](C)c2ccccc2)[C@H]1Oc1ccc(CC(=O)O)cc1"
Result: 3.92
